# measured-target: Gal(b1-4)GlcNAc(b1-3)[Gal(b1-4)GlcNAc(b1-6)]Gal(b1-4)GlcNAc
# experiment-summary: glycan array binding signal (z-score within array); higher = stronger binding
# applied-conditions: glycan notation: IUPAC condensed, linker removed
This is one part of a sample in which the strongest signals are shown more often than they occur.
property-measured: glycan array binding signal (z-score)

{"columns": ["binder", "observed-value"],
 "data": [
  ["PNA (Arachis hypogaea), P02872 (protein) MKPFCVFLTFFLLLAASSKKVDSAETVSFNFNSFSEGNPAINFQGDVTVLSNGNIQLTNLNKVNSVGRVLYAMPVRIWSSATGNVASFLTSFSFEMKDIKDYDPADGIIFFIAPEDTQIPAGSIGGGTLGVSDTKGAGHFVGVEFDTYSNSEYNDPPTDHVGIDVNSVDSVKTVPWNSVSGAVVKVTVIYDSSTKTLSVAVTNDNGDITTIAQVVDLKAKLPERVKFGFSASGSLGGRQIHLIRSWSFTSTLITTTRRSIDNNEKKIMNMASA", -0.153],
  ["TAL6-4LysM (Trichoderma atroviride) (protein) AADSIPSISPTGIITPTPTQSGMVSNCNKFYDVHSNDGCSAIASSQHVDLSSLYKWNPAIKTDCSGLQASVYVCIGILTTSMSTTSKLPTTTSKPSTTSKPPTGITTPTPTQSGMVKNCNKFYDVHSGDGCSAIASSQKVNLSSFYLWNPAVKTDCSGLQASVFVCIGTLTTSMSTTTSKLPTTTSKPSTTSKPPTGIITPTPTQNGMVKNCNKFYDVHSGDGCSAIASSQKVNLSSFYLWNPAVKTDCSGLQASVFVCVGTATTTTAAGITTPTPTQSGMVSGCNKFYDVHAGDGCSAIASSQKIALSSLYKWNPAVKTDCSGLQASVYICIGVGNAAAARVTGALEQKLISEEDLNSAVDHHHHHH", 0.074]
]}
